The reported measurements were obtained from PubChem BioAssay AID651704.

- tested.target: Protein AF-9 (Homo sapiens) (UniProt P42568)
- Sequence (P42568 whole entry, looked up): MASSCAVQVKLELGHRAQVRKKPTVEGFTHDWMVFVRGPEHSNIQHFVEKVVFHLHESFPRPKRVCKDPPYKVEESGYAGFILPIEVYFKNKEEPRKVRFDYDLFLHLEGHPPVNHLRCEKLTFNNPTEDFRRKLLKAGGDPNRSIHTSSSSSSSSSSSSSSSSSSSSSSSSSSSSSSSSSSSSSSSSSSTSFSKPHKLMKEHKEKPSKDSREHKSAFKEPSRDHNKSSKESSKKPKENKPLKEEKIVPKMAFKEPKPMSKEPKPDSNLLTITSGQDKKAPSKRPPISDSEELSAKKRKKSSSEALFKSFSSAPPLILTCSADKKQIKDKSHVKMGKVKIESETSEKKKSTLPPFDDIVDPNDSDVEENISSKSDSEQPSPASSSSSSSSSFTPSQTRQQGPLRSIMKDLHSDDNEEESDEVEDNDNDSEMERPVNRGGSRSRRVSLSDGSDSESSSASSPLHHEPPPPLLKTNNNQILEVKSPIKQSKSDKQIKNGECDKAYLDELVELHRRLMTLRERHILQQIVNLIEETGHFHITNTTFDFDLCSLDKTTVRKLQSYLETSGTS
- measurement.protocol: MLL-AF4/AF9 protein interaction blockers – biochemical, AlphaScreen, biotin-AF4 peptide, FLAG-AF9, single point, primary screen (AID 651704);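 also: 0% = plate neutral control median and 100% = total signal loss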
- experimental.conditions: biotin-AF4 peptide binding to FLAG-AF9, at 10 µM
Hit rate of the full screen: of about 350,000 compounds, about 1,600 (0.46%) were called active.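 The calls were made as follows: active = every replicate reaching a set inhibition limit, whatever the replicate mean (cut at about 25% in these data); inconclusive = mean inhibition reaches that limit but some replicates miss it; inactive = the rest.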 For the sample, actives were picked, then their nearest neighbours and some compounds at random.
In this exercise, the only acceptable responses are 1.0 = active, 0.0 = inactive

Take a look at these entries with their results.
[
  {
    "molecule": "CN(Cc1ccccc1F)c1cc2c(c3c1ccn3C)C1CCC2O1 (configuration not stated)",
    "assigned.class": 1.0
  },
  {
    "molecule": "CCCC#Cc1ccc([C@H]2[C@H]3CN(C(=O)c4cccnc4)CC(=O)N3[C@H]2CO)cc1",
    "assigned.class": 1.0
  }
]

# input Outcome logged for COCC#Cc1ccc([C@@H]2[C@@H](CO)N3C(=O)CN(C(=O)C4CCOCC4)C[C@@H]23)cc1 in this assay:
# output 0.0

# input What about O=C(c1ccc(F)cc1)n1c(=S)nc2ccccn21 ?
# output 1.0

# input What about CO[C@H]1CN(C)C(=O)c2cc(NS(=O)(=O)CC(F)(F)F)ccc2OC[C@H](C)N(C(=O)c2ccc3c(c2)OCO3)C[C@H]1C ?
# output 0.0

# input What about C[C@@H]1CN([C@H](C)CO)C(=O)c2cc(-c3ccc(F)cc3)cnc2O[C@@H]1CN(C)Cc1ccc(C(=O)O)cc1 ?
# output 0.0

# input What about O=C(c1ccc(F)cc1)n1cc(C(=S)N2CCOCC2)c2ccccc21 ?
# output 0.0
